From: patent US20160130305A1

Target: HLA B*4001 (human)
Experiment: competition vs radiolabeled probe peptide, purified HLA
# reported pIC50; entries follow
Formally, pIC50 is defined as -log10 of the concentration c, with c in mol/L.

Lookup: Recorded pIC50 of SEMAEALKGM (modifications not checked) , please.
Found: 6.21

Lookup: Now consider GEFRLRGEQR (modifications not checked) and answer again.
Found: 5.85

Lookup: Now consider REIPERSWNT (modifications not checked) and answer again.
Found: 5.83
